- target.of.assay: Luciferin 4-monooxygenase (Photinus pyralis) (UniProt P08659)
- Sequence (P08659 whole entry, looked up): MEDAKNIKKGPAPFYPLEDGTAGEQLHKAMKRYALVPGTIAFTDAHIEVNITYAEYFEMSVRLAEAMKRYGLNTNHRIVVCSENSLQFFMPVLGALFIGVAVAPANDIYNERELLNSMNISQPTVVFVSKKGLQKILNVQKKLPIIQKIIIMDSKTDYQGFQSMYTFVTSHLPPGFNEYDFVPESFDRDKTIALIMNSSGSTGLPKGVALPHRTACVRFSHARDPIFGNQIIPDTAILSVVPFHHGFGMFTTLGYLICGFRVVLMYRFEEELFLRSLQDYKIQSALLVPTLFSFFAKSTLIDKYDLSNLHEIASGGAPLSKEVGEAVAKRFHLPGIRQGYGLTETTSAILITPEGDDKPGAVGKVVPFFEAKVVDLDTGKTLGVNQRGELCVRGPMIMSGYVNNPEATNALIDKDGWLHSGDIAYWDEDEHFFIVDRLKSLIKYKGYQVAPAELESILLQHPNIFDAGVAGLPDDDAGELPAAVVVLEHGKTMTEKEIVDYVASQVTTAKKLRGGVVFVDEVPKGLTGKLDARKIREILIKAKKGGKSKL
- experiment.notes: qHTS assay to identify small molecule inhibitors of firefly luciferase (AID 1224835); also: nearly all actives have a fitted effect of over 25% in size
- details: purified P. pyralis luciferase, luminescence inhibition; series mostly up to 115 µM
Results filed as inconclusive are left out. Activity calls are given as the source filed them. Calls follow the shape of the dose curve; as a rule, active = well fitted inhibition curve with a large enough effect in the repeat runs; inconclusive = weak or mixed curves; inactive = flat fitted curve, though single readings scatter.
Choose the fitting class; nothing outside active, inactive is accepted.

Test call for this compound, please: "Fc1c(F)c(F)c(Br)c(F)c1F"
inactive

Assay outcome for CC(C)(C)C(=O)C(Oc1ccc(Cl)cc1)n1ccnc1 (stereo not drawn) : what was it?
inactive

Query: recorded result category for "CCCOCCOCCO" in this test
inactive

Given "CCCCCCCC/C=C\CCCCCCCC(=O)OC(CO)CO" , state the outcome it received in this test.
inactive

Could you kindly confirm the outcome this assay logged for "COC(=O)Nc1nc2ccc(C(=O)c3cccs3)cc2[nH]1" ?
active

Tell me the recorded outcome of this test for "C[N+](C)(C)CCOC(N)=O" .
inactive

Hello, I am checking results. What call was entered for "COC(=O)c1cc(Cl)ccc1NS(=O)(=O)C(F)(F)F" ?
inactive

# fetch the recorded call for "Cc1ccc(Nc2nccc(N(C)c3ccc4c(C)n(C)nc4c3)n2)cc1S(N)(=O)=O" here
active

Please share the test call associated with "NC(=O)Nc1ccc(Cl)c(Cl)c1" .
inactive

Returns: the outcome recorded for "O=C(O)c1cccc(O)c1" in this assay.
inactive

Hello, I am checking results. What call was entered for "Cc1cc(OI)c(C(C)C)cc1-c1cc(C(C)C)c(OI)cc1C" ?
inactive

Hi, do you know how N#C/C(=C1\SCC(c2ccccc2Cl)S1)n1ccnc1 (stereo not drawn) came out in this test?
inactive

Each compound tested received a call. Report the one for "CCCCC(=O)O[C@]1(C(=O)CO)CC[C@H]2[C@@H]3CCC4=CC(=O)CC[C@]4(C)[C@H]3[C@@H](O)C[C@@]21C" .
inactive
